Assignment: determine reported kcat/KM for the given proteins.
# Test Target: Factor X (FX), P00742
# Sequence (P00742 whole entry, looked up): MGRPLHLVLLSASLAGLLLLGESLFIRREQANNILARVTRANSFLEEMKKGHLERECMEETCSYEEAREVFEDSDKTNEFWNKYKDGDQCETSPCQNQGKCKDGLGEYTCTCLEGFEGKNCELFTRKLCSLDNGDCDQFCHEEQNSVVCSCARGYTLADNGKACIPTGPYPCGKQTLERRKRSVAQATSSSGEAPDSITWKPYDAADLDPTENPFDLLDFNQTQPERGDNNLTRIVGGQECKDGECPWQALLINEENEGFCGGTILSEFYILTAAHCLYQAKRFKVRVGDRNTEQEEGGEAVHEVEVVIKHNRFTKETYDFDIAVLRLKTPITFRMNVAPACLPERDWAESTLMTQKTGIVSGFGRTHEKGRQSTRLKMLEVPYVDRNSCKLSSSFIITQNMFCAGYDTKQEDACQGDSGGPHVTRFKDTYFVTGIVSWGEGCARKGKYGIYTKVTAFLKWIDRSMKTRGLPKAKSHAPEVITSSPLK
Numbers only, in M⁻¹ s⁻¹.

{"Protein": "FIXa-D104N/K106S/Y155F/K247N/N249S/R318Y/R338E/R403E/E410N (protein) chain 1: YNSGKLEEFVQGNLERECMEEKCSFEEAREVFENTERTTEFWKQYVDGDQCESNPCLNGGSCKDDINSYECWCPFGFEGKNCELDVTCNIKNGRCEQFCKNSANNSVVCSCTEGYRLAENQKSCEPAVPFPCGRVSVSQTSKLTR chain 2: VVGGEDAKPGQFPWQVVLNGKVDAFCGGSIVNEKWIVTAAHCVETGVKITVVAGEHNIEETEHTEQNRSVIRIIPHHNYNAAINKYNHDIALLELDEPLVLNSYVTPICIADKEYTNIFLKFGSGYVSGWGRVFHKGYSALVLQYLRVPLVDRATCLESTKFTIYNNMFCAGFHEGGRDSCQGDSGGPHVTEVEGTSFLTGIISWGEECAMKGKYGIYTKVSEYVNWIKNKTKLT", "Parameter": "kcat/KM", "Units Text": "M⁻¹ s⁻¹", "Assay Result": "1.3e+08"}

Need kcat/KM for each of these proteins.
1. FIXa variant K228N/R318Y/E410N (protein) chain 1: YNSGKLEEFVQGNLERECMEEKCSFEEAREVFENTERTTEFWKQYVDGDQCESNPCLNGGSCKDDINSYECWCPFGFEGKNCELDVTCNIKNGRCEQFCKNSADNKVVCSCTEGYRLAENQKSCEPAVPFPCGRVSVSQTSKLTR chain 2: VVGGEDAKPGQFPWQVVLNGKVDAFCGGSIVNEKWIVTAAHCVETGVNITVVAGEHNIEETEHTEQKRNVIRIIPHHNYNAAINKYNHDIALLELDEPLVLNSYVTPICIADKEYTNIFLKFGSGYVSGWGRVFHKGYSALVLQYLRVPLVDRATCLRSTKFTIYNNMFCAGFHEGGRDSCQGDSGGPHVTEVEGTSFLTGIISWGEECAMKGKYGIYTKVSRYVNWIKNKTKLT
2. FIXa variant R318Y/R338E/R403E (protein) chain 1: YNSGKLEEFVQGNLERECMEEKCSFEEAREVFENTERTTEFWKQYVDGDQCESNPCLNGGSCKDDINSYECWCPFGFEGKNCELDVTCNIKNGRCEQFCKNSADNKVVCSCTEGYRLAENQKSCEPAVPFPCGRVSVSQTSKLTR chain 2: VVGGEDAKPGQFPWQVVLNGKVDAFCGGSIVNEKWIVTAAHCVETGVKITVVAGEHNIEETEHTEQKRNVIRIIPHHNYNAAINKYNHDIALLELDEPLVLNSYVTPICIADKEYTNIFLKFGSGYVSGWGRVFHKGYSALVLQYLRVPLVDRATCLESTKFTIYNNMFCAGFHEGGRDSCQGDSGGPHVTEVEGTSFLTGIISWGEECAMKGKYGIYTKVSEYVNWIKEKTKLT
3. FIXa-D203N/F205T/R338A (protein) chain 1: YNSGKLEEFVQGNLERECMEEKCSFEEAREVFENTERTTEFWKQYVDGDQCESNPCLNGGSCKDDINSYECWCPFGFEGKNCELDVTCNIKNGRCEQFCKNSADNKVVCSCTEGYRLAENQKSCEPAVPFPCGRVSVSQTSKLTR chain 2: VVGGEDAKPGQFPWQVVLNGKVNATCGGSIVNEKWIVTAAHCVETGVKITVVAGEHNIEETEHTEQKRNVIRIIPHHNYNAAINKYNHDIALLELDEPLVLNSYVTPICIADKEYTNIFLKFGSGYVSGWGRVFHKGRSALVLQYLRVPLVDRATCLASTKFTIYNNMFCAGFHEGGRDSCQGDSGGPHVTEVEGTSFLTGIISWGEECAMKGKYGIYTKVSRYVNWIKEKTKLT

1.2e+08
6.2e+07
6.2e+07
